system: Tov-21-G; assay: Primary qHTS to identify gynecologic anti-cancer compounds using libraries of approved drugs and bioactive compounds (AID 1345084); settings: Gynecologic cancer cell panel viability, ATPlite luminescence, 48 h; series mostly up to 57.5 µM; note: nearly all actives have a fitted effect of over 55% in size
Records with an inconclusive call do not appear. The source made the active and inactive calls. Calls come from the whole dose curve; as a rule, active = well fitted cell-killing curve with a large enough effect; inconclusive = small, poorly fitted or top-dose-only effect, or effect the other way; inactive = flat fitted curve, though single readings scatter.
Outcome codes: active, inactive

{"columns": ["compound", "answer-label"],
 "data": [
  ["COc1c(Nc2ncc(Cl)c(N[C@H]3[C@@H](C(N)=O)[C@@H]4C=C[C@H]3C4)n2)ccc2c1CC[C@@H](N1CCOCC1)CC2", "inactive"],
  ["O=C(O)c1ccccc1NCCc1ccccc1", "inactive"],
  ["COC(=O)CCSCc1ccc(-c2onc(C)c2NC(=O)OC(C)c2ccccc2Cl)cc1 (stereo not drawn)", "inactive"],
  ["CC1(C)[C@@H](O)CC[C@]2(C)[C@H]3CC=C4[C@@H]5C[C@](C)(C(=O)O)CC[C@]5(C)CC[C@@]4(C)[C@]3(C)CC[C@@H]12", "inactive"],
  ["CCCCNc1ncc2c(-c3ccc(CN4CCN(C)CC4)cc3)cn(C3CCC(O)CC3)c2n1 (stereo not drawn)", "active"],
  ["COC(=O)C1=CO[C@@H](O[C@@H]2O[C@H](CO)[C@@H](O)[C@H](O)[C@H]2O)[C@H]2[C@@H]1C=C[C@@]21C=C([C@H](C)O)C(=O)O1", "inactive"],
  ["Cc1cc(C)c2c(N)c(C(=O)NCc3ccc(Cl)cc3)sc2n1", "inactive"],
  ["O=C1NC(Cc2c[nH]c3ccccc23)C(=O)NC1Cc1c[nH]c2ccccc12 (stereo not drawn)", "inactive"]
]}
